# system-tested: sGC α1/β1 heterodimer (Homo sapiens, UniProt Q02108+Q02153)
# Construct: expressed in transfected cells; host or cells: CHO-K1 (clone #7, CHO-K1/sGC)
# Sequence (Q02108 1-690): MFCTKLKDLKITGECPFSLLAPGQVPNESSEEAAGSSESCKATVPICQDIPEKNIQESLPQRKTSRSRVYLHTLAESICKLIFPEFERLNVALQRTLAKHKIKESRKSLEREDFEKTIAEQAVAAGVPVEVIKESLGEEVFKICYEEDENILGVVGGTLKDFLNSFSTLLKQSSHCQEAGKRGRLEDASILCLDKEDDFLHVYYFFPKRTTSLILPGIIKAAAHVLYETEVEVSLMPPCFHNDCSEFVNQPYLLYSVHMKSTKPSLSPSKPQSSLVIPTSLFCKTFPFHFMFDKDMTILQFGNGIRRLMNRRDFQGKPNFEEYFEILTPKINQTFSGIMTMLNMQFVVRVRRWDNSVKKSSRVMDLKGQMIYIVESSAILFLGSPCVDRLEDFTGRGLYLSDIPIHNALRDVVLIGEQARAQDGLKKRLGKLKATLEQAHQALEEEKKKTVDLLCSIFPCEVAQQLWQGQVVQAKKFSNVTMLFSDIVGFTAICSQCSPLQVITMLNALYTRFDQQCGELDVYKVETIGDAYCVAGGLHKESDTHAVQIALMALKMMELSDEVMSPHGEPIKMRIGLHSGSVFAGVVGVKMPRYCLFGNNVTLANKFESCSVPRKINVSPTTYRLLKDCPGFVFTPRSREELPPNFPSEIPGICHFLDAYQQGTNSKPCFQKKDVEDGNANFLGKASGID
# Sequence (Q02153 1-619): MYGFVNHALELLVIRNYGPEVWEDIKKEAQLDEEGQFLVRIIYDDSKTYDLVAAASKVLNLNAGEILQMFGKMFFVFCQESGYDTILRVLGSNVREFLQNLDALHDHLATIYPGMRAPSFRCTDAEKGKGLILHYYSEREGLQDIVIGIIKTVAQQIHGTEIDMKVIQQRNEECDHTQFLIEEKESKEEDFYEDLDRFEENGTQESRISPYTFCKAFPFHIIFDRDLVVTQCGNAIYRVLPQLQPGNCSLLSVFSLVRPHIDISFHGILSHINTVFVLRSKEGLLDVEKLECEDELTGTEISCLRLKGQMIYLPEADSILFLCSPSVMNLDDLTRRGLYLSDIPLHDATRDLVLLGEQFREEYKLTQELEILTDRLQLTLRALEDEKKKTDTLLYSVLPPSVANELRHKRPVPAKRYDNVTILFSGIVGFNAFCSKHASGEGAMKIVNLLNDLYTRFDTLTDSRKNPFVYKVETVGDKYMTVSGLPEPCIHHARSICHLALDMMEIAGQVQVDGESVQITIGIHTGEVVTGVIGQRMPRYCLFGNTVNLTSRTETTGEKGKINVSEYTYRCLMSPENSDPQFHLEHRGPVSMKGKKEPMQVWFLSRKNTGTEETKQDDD
# method: Cell-Based sGC Functional Assay (CASA Assay), cGMP by HTRF in CHO-K1/sGC cells
# condition: CHO-K1, percent activation relative to maximum cGMP production of Compound A (= 100%), read-out: % Act.
property-label: Emax (%)

Past entries and their recorded results:
CC1(c2ccc(F)cc2)C(=O)Nc2nc(-c3cn4ccnc4c(CCC(F)(F)C(F)(F)F)n3)nc(C3CC3)c21 (centres unmarked) [Example 75A] ... 166
O=C1Nc2nc(-c3cn4ccnc4c(CCCC(F)(F)F)n3)ncc2C1(c1ccc(F)cn1)C1CC1 (centres unmarked) [Example 54A] ... 137
CCCCc1nc(-c2ncc3c(n2)NC(=O)C3(c2ccc(Cl)cc2)C2CC2)cn2ccnc12 (centres unmarked) [Example 49B] ... 157
CC1(c2ccc(Cl)cc2)C(=O)Nc2nc(-c3cn4ccnc4c(CCC(F)(F)F)n3)ncc21 (centres unmarked) [Example 61A] ... 104
CC(C)Cc1nc(-c2ncc3c(n2)NC(=O)C3(C)c2ccc(Cl)cn2)cn2ccnc12 (centres unmarked) [Example 41A] ... 111

a = CCCCc1nc(-c2ncc3c(n2)NC(=O)C3(c2ccc(Cl)cn2)C2CC2)cn2ccnc12 (centres unmarked) [Example 55A]
b = CC1(c2ccc(F)cc2)C(=O)Nc2nc(-c3cn4ccnc4c(OCCC4CC4)n3)nc(O)c21 (centres unmarked) [Example 93A]
Kindly compare a with b and tell me which has the lower Emax figure. Select an item and report its label.
b
(b: 86%, a: 188%)

a = O=C1Nc2nc(-c3cn4ccnc4c(CCCC(F)(F)F)n3)nc(O)c2C1(c1ccc(Cl)cc1)C1CC1 (centres unmarked) [Example 24B]
b = CCCCc1nc(-c2nc(O)c3c(n2)NC(=O)C3(C)c2ccc(F)cc2)cn2ccnc12 (centres unmarked) [Example 79A]
Would you let me know which has the greater Emax value, a or b ? Select an item and report its label.
a
(a: 169%, b: 100%)

P = CC1(c2ccc(Cl)cn2)C(=O)Nc2nc(-c3cn4ccnc4c(CC4CCC4)n3)ncc21 (centres unmarked) [Example 58A]
Q = CC1(c2ccc(F)cc2)C(=O)Nc2nc(-c3cn4ccnc4c(CC4CCC4)n3)nc(O)c21 (centres unmarked) [Example 29A]
Kindly compare P with Q and tell me which has the lower Emax figure. Select an item and report its label.
Q

P = CC1(c2ccc(F)cn2)C(=O)Nc2nc(-c3cn4ccnc4c(CCCC(F)(F)F)n3)nc(O)c21 (centres unmarked) [Example 32B]
Q = CC1(c2ccc(F)cn2)C(=O)Nc2nc(-c3cn4ccnc4c(CCC(F)(F)C(F)(F)F)n3)nc(O)c21 (single isomer, unassigned) [Example 18B]
Would you let me know which has the greater Emax value, P or Q ? Select an item and report its label.
P
(P: 115%, Q: 78%)

a = CC1(c2ccc(Cl)cn2)C(=O)Nc2nc(-c3cn4ccnc4c(CC4CCC4)n3)nc(O)c21 (centres unmarked) [Example 27A]
b = O=C1Nc2nc(-c3cn4ccnc4c(Cc4ccc(F)cc4)n3)ncc2C1(C(=O)NC1CC1)C1CC1 (single isomer, unassigned) [Example 68A]
Would you let me know which has the greater Emax value, a or b ? Select an item and report its label.
b
(b: 138%, a: 95%)
